Could you please report measured efflux ratio at 120 min, 5 μM for the items listed next?
Tested on: MDR1
ASSAY_METHOD_TEXT: MDCK-MDR1 permeability assay (BBB penetration potential)
Assay type: in vitro ADME
REPORTED_CONDITIONS: dog, MDCK-MDR1, pH 7.4, MDCK-MDR1: Efflux
Numbers only.

A selection of reference data follows.
Cn1c(=O)oc2cc(-c3ccc(O[C@H]4C[C@@H]5CCC[C@@H](N5)[C@H]4F)nn3)c(O)cc21 (single isomer, unassigned) [74-ENT2] :: 5
Cn1ccc2cc(-c3ccc(O[C@H]4C[C@]5(C)CCC[C@@](C)(N5)[C@H]4F)nn3)c(O)cc2c1=O (single isomer, unassigned) [156-ENT2] :: 9
Oc1cc(-c2nnco2)c(F)cc1-c1ccc(O[C@@H]2C[C@H]3CC[C@H](N3)[C@@H]2F)nn1 (stereo in doubt) [142-ENT1] :: 6

Value sought for every listed molecule: efflux ratio at 120 min, 5 μM.
1. Cc1cnc(-c2ccc(-c3ccc(O[C@H]4C[C@@H]5CCC[C@@H](N5)[C@H]4F)nn3)c(O)c2)cn1 (single isomer, unassigned) [78-ENT2]
2. Cn1ccc(-c2ccc(-c3ccc(O[C@H]4C[C@@H]5CCC[C@@H](N5)[C@H]4F)nn3)c(O)c2)cc1=O (single isomer, unassigned) [54-ENT2]
3. Oc1cc(-c2ccccn2)ccc1-c1ccc(O[C@@H]2C[C@H]3CCC[C@H](N3)[C@@H]2F)nn1 (single isomer, unassigned) [77-ENT1]
4. Cc1ncc(-c2ccc(-c3ccc(O[C@H]4C[C@@H]5CCC[C@@H](N5)[C@H]4F)nn3)c(O)c2)s1 (single isomer, unassigned) [96-ENT2]

Result:
[4, 34, 4, 2]

----------
System: MDR1-MDCK cell monolayers
ASSAY_METHOD_TEXT: MDCK-MDR1 permeability assay (BBB penetration potential)
Format: in vitro ADME
REPORTED_CONDITIONS: dog, MDCK-MDR1, 120 min, 5 μM, pH 7.4
Each record is given Y if its reported MDCK-MDR1: % Recov A-B is strictly below 60%. Records at or above 60% are given N.

Field: example entries. Status: answers known.
Oc1cc(-n2ccc(F)n2)ccc1-c1ccc(O[C@@H]2C[C@H]3CCC[C@H](N3)[C@@H]2F)nn1 (single isomer, unassigned) :: Y
Oc1cc(-c2cn[nH]c2)ccc1-c1ccc(O[C@@H]2C[C@H]3C[C@H](F)C[C@@H](C2)N3)nn1 :: N
Oc1cc(-c2ccnnc2)ccc1-c1ccc(O[C@H]2C[C@@H]3CCC[C@@H](N3)[C@H]2F)nn1 (single isomer, unassigned) :: N
Cn1cc(-c2ccc(-c3ccc(O[C@H]4C[C@@H]5CCC[C@@H](N5)[C@H]4F)nn3)c(O)c2)c(F)n1 (single isomer, unassigned) :: Y
Cc1cnc(-c2ccc(-c3ccc(O[C@@H]4C[C@H]5CCC[C@H](N5)[C@@H]4F)nn3)c(O)c2)cn1 (single isomer, unassigned) :: N
Cc1nnc(-c2ccc(-c3ccc(O[C@@H]4C[C@H]5CCC[C@H](N5)[C@@H]4F)nn3)c(O)c2)s1 (single isomer, unassigned) :: N
Cn1ccc2cc(O)c(-c3ccc(O[C@@H]4C[C@@]5(C)CC[C@](C)(N5)[C@@H]4F)nn3)cc2c1=O (single isomer, unassigned) :: N
Cn1cc(-c2ccc(-c3ccc(O[C@@H]4C[C@H]5CCC[C@H](N5)[C@@H]4F)nn3)c(O)c2)c(F)n1 (single isomer, unassigned) :: Y
Cc1nc(-c2ccc(-c3ccc(O[C@@H]4C[C@H]5CCC[C@H](N5)[C@@H]4F)nn3)c(O)c2)cs1 (single isomer, unassigned) :: Y
Cn1c(=O)oc2cc(-c3ccc(O[C@@H]4C[C@H]5CCC[C@H](N5)[C@@H]4F)nn3)c(O)cc21 (single isomer, unassigned) :: N

Request: Is the reported MDCK-MDR1: % Recov A-B for Oc1cc(-c2nnco2)ccc1-c1ccc(O[C@@H]2C[C@H]3CCC[C@H](N3)[C@@H]2F)nn1 (single isomer, unassigned) strictly below 60%?
Result: N

Request: State whether 60% exceeds MDCK-MDR1: % Recov A-B recorded for Cc1ccc(-c2ccc(-c3ccc(O[C@@H]4C[C@H]5CCC[C@H](N5)[C@@H]4F)nn3)c(O)c2)o1 (single isomer, unassigned) .
Result: Y
